Recorded kon by entry
target: T1, human IL-13 wild type (human, UniProt P35225 35-146); assay: SPR (Biacore), mAb captured, IL-13 as analyte
T1 construct: also called h IL-13; h IL-13 wt
T1 sequence (P35225 other isoform, or with tags, fused parts or gaps limits assumed): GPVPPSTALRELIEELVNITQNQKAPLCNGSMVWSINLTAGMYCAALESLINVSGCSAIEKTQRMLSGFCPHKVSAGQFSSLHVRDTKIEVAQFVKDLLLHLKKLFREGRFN
Give the quantity in M⁻¹ s⁻¹, number only.

Below: 2 binders and their reported kon.
9C11 (antibody, V domains shown) VH: QVRLQQPGAELVRPGASVKLSCKASGYTFTSSWIHWVNQRPGQGLEWIGMIHPSDSETRLNQKFKDKATLTVDKSSSTAYMQLSSPTSEDSAVYYCASTATDFDYWGQGTTLTVSS VL: DVVLTQTPLSLPVNIGDQASISCRSTQTLLNSDGFTYLDWYLQKPGQSPQLLIYLVSNRFSGVPDRFSGSGSGTDFTLKISRVEAEDLGVYYCFQNNYLPLTFGAGTKLELKR : 579000
25C8 (antibody, V domains shown) VH: QVQLQQPGAELVRPGASVQLSCKASGYTFTSSWIHWVNQRPGQGLEWIGMIHPSDSETRLNQKFKDKATLTVDKSSSTAYMQLSSPTSEDSAVYYCASTATDFDYWGQGTTLTVSS VL: DVVLTQTPLSLPVNIGDQASISCKSTKSLLNSDGFTYLDWYLQKPGQSPQLLIYLVSNRFSGAPDRFSGSGSGTDFTLKISRVEAEDLGVYYCFQHNYLPLTFGAGTNLELKR : 345000

Looking up 22D10 (antibody, V domains shown) VH: QVQLQQSGDDLVKPGASVKLSCKASGYTFTSYWINWIKQRPGQGLEWIGHIAPGSGETYDNEMFKDKAKLTVDTSSSTAYIHLSSLSSEDSAVYFCARGSFTFFYAMDYWGQGTSVTVSS VL: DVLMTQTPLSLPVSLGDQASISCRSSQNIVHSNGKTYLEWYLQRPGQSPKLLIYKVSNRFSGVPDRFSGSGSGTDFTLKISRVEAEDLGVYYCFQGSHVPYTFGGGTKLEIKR , I see its kon listed as 182000
